Below, each entry is listed with its recorded TGI.
Test system: M14 melanoma
Experiment: NCI tumour cell line growth inhibition, 48 h

compound	TGI
O=C(Nc1cccc(C(F)(F)F)c1)c1cc2ccccc2cc1O	48.7 µM
CCCCCCCCCCCCO[P+](=O)OCCCCCCCCCCCC	> 100 µM
CC(C)(C)C1=C(Br)C(OC(=O)C(F)(F)F)(C(C)(C)C)OP1(=O)c1ccccc1 (stereo not given)	> 100 µM
Cc1ccc2c(c1C)C(=O)/C(=C/c1cccc(C)c1C(=O)O)C2	> 100 µM
O=C(/C=C/c1ccc([N+](=O)[O-])cc1)c1cccc(Nc2nc(Nc3ccccc3)nc(Nc3ccccc3)n2)c1	90.6 µM
CCCCCCCCCCSC(=N)N	3.57 µM
CCOC(=O)C(C(=O)COC(C)(C)C)[C@@H]1C=C[C@H](OC(C)=O)C1 (stereo not given in full)	> 100 µM
COC(=O)/C(=N\Nc1nnc(C)n1N)C(C#N)c1ccccc1 (stereo not given)	> 100 µM
CC(=O)[C-](C(C)=O)c1ccccc1.CC(=O)[C-](C(C)=O)c1ccccc1.CC(=O)[C-](C(C)=O)c1ccccc1.[Cl-].[Zr+4]	> 100 µM
Cc1cc(Nc2nc(-c3ccncc3)nc3ccccc23)n[nH]1	> 100 µM

----------
Tested on: KM12 colon
Test: NCI tumour cell line growth inhibition, 48 h
property: TGI

molecule	property	valueMeasured
CC1C2(C)OCC(C#N)(C(=N)O2)C1(C#N)C#N (configuration not stated)	TGI	> 100 µM
C/C(=N\NC(N)=S)c1ccc(C2CCCCC2)cc1	TGI	> 100 µM
Cc1cc(Nc2nc(-c3ccncc3)nc3ccccc23)n[nH]1	TGI	> 100 µM
COc1ccc(-c2n/c(=C\c3c(O)[nH]c4ccccc34)cc3c2=Nc2ccccc2-3)cc1	TGI	2.18 µM
S=c1c2ccccc2c(=S)n2n1CC=CC2	TGI	> 100 µM
CCCOC(=O)C1C2CCC(O2)C1C(=O)O (configuration not stated)	TGI	> 100 µM
CC(=O)c1c2c(cc3c1CC1(C3)Cc3cc4c(c(C(=O)O)c3C1)CCC4)CCC2 (configuration not stated)	TGI	> 100 µM
CC(C)(C)[Si](C)(C)OC[C@H](/C=C\CCCC(=O)O)NC1(c2ccccc2)c2ccccc2-c2ccccc21	TGI	48.8 µM
Cc1cc2nc(-c3c(F)cccc3Cl)n(Cc3c(F)cccc3Cl)c2cc1C	TGI	37.7 µM
O=C(NCCCCCN1CCC2(CCCCC2)CC1)C(C1CCCCC1)C1CCCCC1	TGI	13 µM
CC(C)NC(=O)OCc1c(COC(=O)NC(C)C)c(-c2cc[n+](COC(=O)C3CCCCC3)cc2)n2c1CCC2	TGI	> 100 µM
COc1ccc(-c2nc(C(=O)c3ccccc3)n(CC(=O)c3ccc(Cl)cc3)c2-c2ccc(OC)cc2)cc1	TGI	> 100 µM
Cc1cc2ccc(N)nc2[nH]c1=O	TGI	> 100 µM
COc1cccc(NC2=C(Cl)C(=O)N(Cc3ccc(Cl)cc3)C2=O)c1	TGI	30.5 µM
Cc1ccc(/C=C2/N=C(N/N=C\c3ccccc3)NC2=O)cc1	TGI	> 100 µM
Cc1ccc2c(c1C)C(=O)/C(=C/c1cccc(C)c1C(=O)O)C2	TGI	> 100 µM
Cn1cc(C2=C(c3cn(CCCCC(=N)N)c4ccccc34)C(=O)NC2=O)c2ccccc21	TGI	> 25 µM
O=c1[nH]nc(-c2ccccc2)n1-n1cnnc1	TGI	> 100 µM
Nc1nc(N)c2c(n1)NC(c1sc(Cl)nc1Cl)CC(c1ccc3c(c1)OCO3)=N2 (configuration not stated)	TGI	21.4 µM
NNC(=O)C(O)C(O)C(=O)NN (configuration not stated)	TGI	> 100 µM
COc1cccc2c1cc1c3c(cc4c(c32)OCO4)C(=O)N1	TGI	23.7 µM
c1ccc(-c2ccnc3c2ccc2c(-c4ccccc4)ccnc23)cc1	TGI	10.2 µM

Recorded values, source PubChem BioAssay (NCI).
